biological target: native sulfated human cationic trypsin purified from pancreatic juice (human); assay: equilibrium binding assay (free trypsin activity on a fluorogenic substrate); fixed trypsin incubated with increasing SPINK1, 0.2 ml, 0.1 M Tris-HCl (pH 8.0), 150 mM NaCl, 1 mM CaCl2, 0.05% Tween 20, 15 h; free trypsin measured with Z-Gly-Pro-Arg-AMC; apparent KD, global fit of at least three experiments
pKd: −log10 of the molar value.
I would appreciate it if you labelled entries True when pKd is 10 or higher, otherwise False.

binder	answer-label
SPINK1 variant I42M, C-terminal 10His tag (natural protein) DSLGREAKCYNELNGCTKMYDPVCGTDGNTYPNECVLCFENRKRQTSILIQKSGPC	False

Turning now to a further binder:
hey, is pKd for this one >= 10? SPINK1 variant N34S, C-terminal 10His tag (natural protein) DSLGREAKCYSELNGCTKIYDPVCGTDGNTYPNECVLCFENRKRQTSILIQKSGPC
True
